Measurement Notes: activity coefficient (dimensionless); of the first substance listed, at infinite dilution; xn = mol fraction of the nth substance listed
Run Parameters: 343.15 K; Liquid; Chromatography; x1 = 0
Flag rule - activity coefficient less than 0.9 flags class 1; the remaining entries get class 0.

| Compound | Category Label |
| --- | --- |
| Cc1cccc(C)c1 [1,3-dimethylbenzene] + CCCC[N+](C)(CCCC)CCCC.O=S(=O)([N-]S(=O)(=O)C(F)(F)F)C(F)(F)F | class 0 |
| CCCO [propan-1-ol] + CCCCCCCCCC[N+](C)(C)C.O=S(=O)([N-]S(=O)(=O)C(F)(F)F)C(F)(F)F | class 0 |
| CCCCCCCCCCCC [dodecane] + CCCCCCCC[N+](CCCCCCCC)(CCCCCCCC)CCCCCCCC.O=S(=O)([N-]S(=O)(=O)C(F)(F)F)C(F)(F)F | class 0 |
| CCC=O [propanal] + CCCCCCCC[N+](CCCCCCCC)(CCCCCCCC)CCCCCCCC.O=S(=O)([N-]S(=O)(=O)C(F)(F)F)C(F)(F)F | class 1 |
| ClC(Cl)(Cl)Cl [tetrachloromethane] + CCCCCCCC[N+](CCCCCCCC)(CCCCCCCC)CCCCCCCC.O=S(=O)([N-]S(=O)(=O)C(F)(F)F)C(F)(F)F | class 1 |

* * *

Below, each of the compounds is paired with its reported activity coefficient value.
Measurement Notes: activity coefficient (dimensionless); of the first substance listed, at infinite dilution; xn = mol fraction of the nth substance listed
Run Parameters: 332.65 K; Liquid; Chromatography; x1 = 0

| Compound | activity coefficient |
| --- | --- |
| CCCC=O [butanal] + CCCCCCCCCC[N+](C)(C)C.O=S(=O)([N-]S(=O)(=O)C(F)(F)F)C(F)(F)F | 0.53 |
| CCCCCCCCC [nonane] + CCCCCCCC[N+](CCCCCCCC)(CCCCCCCC)CCCCCCCC.O=S(=O)([N-]S(=O)(=O)C(F)(F)F)C(F)(F)F | 2.14 |
| CCCCO [butan-1-ol] + CCCCCCCCCC[N+](C)(C)C.O=S(=O)([N-]S(=O)(=O)C(F)(F)F)C(F)(F)F | 1.55 |
| CCC=O [propanal] + CCCCCCCCCC[N+](C)(C)C.O=S(=O)([N-]S(=O)(=O)C(F)(F)F)C(F)(F)F | 0.42 |
| CCC(C)CC [3-methylpentane] + CCCC[N+](C)(CCCC)CCCC.O=S(=O)([N-]S(=O)(=O)C(F)(F)F)C(F)(F)F | 6.17 |
| CCC[N+](=O)[O-] [1-nitropropane] + CCCCCCCC[N+](CCCCCCCC)(CCCCCCCC)CCCCCCCC.O=S(=O)([N-]S(=O)(=O)C(F)(F)F)C(F)(F)F | 0.48 |
| CCOCC [diethyl ether] + CCCCCCCC[N+](C)(C)C.O=S(=O)([N-]S(=O)(=O)C(F)(F)F)C(F)(F)F | 1.57 |
| C1CCCCCC1 [cycloheptane] + CCCCCCCCCC[N+](C)(C)C.O=S(=O)([N-]S(=O)(=O)C(F)(F)F)C(F)(F)F | 10.8 |
| CCCCCCC [heptane] + CCCCCCCC[N+](C)(C)C.O=S(=O)([N-]S(=O)(=O)C(F)(F)F)C(F)(F)F | 7.81 |
| ClC(Cl)(Cl)Cl [tetrachloromethane] + CCCCCCCC[N+](CCCCCCCC)(CCCCCCCC)CCCCCCCC.O=S(=O)([N-]S(=O)(=O)C(F)(F)F)C(F)(F)F | 0.64 |
| CC(C)O [propan-2-ol] + CCCCCCCC[N+](CCCCCCCC)(CCCCCCCC)CCCCCCCC.O=S(=O)([N-]S(=O)(=O)C(F)(F)F)C(F)(F)F | 1.13 |
| CC(C)CC(C)(C)C [2,2,4-trimethylpentane] + CCCC[N+](C)(CCCC)CCCC.O=S(=O)([N-]S(=O)(=O)C(F)(F)F)C(F)(F)F | 8.91 |
| C=O [methanal] + CCCCCCCC[N+](CCCCCCCC)(CCCCCCCC)CCCCCCCC.O=S(=O)([N-]S(=O)(=O)C(F)(F)F)C(F)(F)F | 0.08 |

* * *

Measurement Notes: activity coefficient (dimensionless); of the first substance listed, at infinite dilution; xn = mol fraction of the nth substance listed
Run Parameters: 322.85 K; Liquid; Chromatography; x1 = 0
Below is a list of entries, each paired with its recorded activity coefficient value.

| Compound | activity coefficient |
| --- | --- |
| CCC(C)CC [3-methylpentane] + CCCCCCCC[N+](CCCCCCCC)(CCCCCCCC)CCCCCCCC.O=S(=O)([N-]S(=O)(=O)C(F)(F)F)C(F)(F)F | 1.22 |
| C#CCCCC [1-hexyne] + CCCCCCCC[N+](C)(C)C.O=S(=O)([N-]S(=O)(=O)C(F)(F)F)C(F)(F)F | 1.92 |
| CC1CCCCC1 [methylcyclohexane] + CCCCCCCC[N+](CCCCCCCC)(CCCCCCCC)CCCCCCCC.O=S(=O)([N-]S(=O)(=O)C(F)(F)F)C(F)(F)F | 1.07 |
| ClC(Cl)Cl [trichloromethane] + CCCCCCCC[N+](CCCCCCCC)(CCCCCCCC)CCCCCCCC.O=S(=O)([N-]S(=O)(=O)C(F)(F)F)C(F)(F)F | 0.34 |
| CCO [ethanol] + CCCCCCCC[N+](CCCCCCCC)(CCCCCCCC)CCCCCCCC.O=S(=O)([N-]S(=O)(=O)C(F)(F)F)C(F)(F)F | 1.18 |
| Cc1ccccc1C [1,2-dimethylbenzene] + CCCCCCCC[N+](C)(C)C.O=S(=O)([N-]S(=O)(=O)C(F)(F)F)C(F)(F)F | 1.24 |

* * *

In this section, each of the compounds is paired with its reported activity coefficient.
Measurement Notes: activity coefficient (dimensionless); of the first substance listed, at infinite dilution; xn = mol fraction of the nth substance listed
Run Parameters: 322.85 K; Liquid; Chromatography; x1 = 0
Observable: activity coefficient

| Compound | Observable | Endpoint Result |
| --- | --- | --- |
| CC(C)O [propan-2-ol] + CCCCCCCC[N+](C)(C)C.O=S(=O)([N-]S(=O)(=O)C(F)(F)F)C(F)(F)F | activity coefficient | 1.63 |
| CC#N [acetonitrile] + CCCCCCCC[N+](CCCCCCCC)(CCCCCCCC)CCCCCCCC.O=S(=O)([N-]S(=O)(=O)C(F)(F)F)C(F)(F)F | activity coefficient | 0.5 |
| CC#N [acetonitrile] + CCCCCCCCCC[N+](C)(C)C.O=S(=O)([N-]S(=O)(=O)C(F)(F)F)C(F)(F)F | activity coefficient | 0.44 |
| c1ccsc1 [thiophene] + CCCCCCCC[N+](C)(C)C.O=S(=O)([N-]S(=O)(=O)C(F)(F)F)C(F)(F)F | activity coefficient | 0.69 |
| CCC=O [propanal] + CCCC[N+](C)(CCCC)CCCC.O=S(=O)([N-]S(=O)(=O)C(F)(F)F)C(F)(F)F | activity coefficient | 0.49 |
| Cc1ccc(C)cc1 [1,4-dimethylbenzene] + CCCCCCCC[N+](C)(C)C.O=S(=O)([N-]S(=O)(=O)C(F)(F)F)C(F)(F)F | activity coefficient | 1.38 |
| c1ccccc1 [benzene] + CCCCCCCC[N+](CCCCCCCC)(CCCCCCCC)CCCCCCCC.O=S(=O)([N-]S(=O)(=O)C(F)(F)F)C(F)(F)F | activity coefficient | 0.4 |

* * *

Measurement Notes: activity coefficient (dimensionless); of the first substance listed, at infinite dilution; xn = mol fraction of the nth substance listed
Run Parameters: 343.15 K; Liquid; Chromatography; x1 = 0
Observable: activity coefficient

| Molecule | Observable | Endpoint Result |
| --- | --- | --- |
| Cc1ccc(C)cc1 [1,4-dimethylbenzene] + CCCCCCCC[N+](C)(C)C.O=S(=O)([N-]S(=O)(=O)C(F)(F)F)C(F)(F)F | activity coefficient | 1.37 |
| CC#N [acetonitrile] + CCCCCCCC[N+](C)(C)C.O=S(=O)([N-]S(=O)(=O)C(F)(F)F)C(F)(F)F | activity coefficient | 0.44 |
| C#CCCCC [1-hexyne] + CCCCCCCC[N+](CCCCCCCC)(CCCCCCCC)CCCCCCCC.O=S(=O)([N-]S(=O)(=O)C(F)(F)F)C(F)(F)F | activity coefficient | 0.76 |
| Cc1ccccc1 [toluene] + CCCCCCCC[N+](CCCCCCCC)(CCCCCCCC)CCCCCCCC.O=S(=O)([N-]S(=O)(=O)C(F)(F)F)C(F)(F)F | activity coefficient | 0.49 |
| C#CCCCC [1-hexyne] + CCCC[N+](C)(CCCC)CCCC.O=S(=O)([N-]S(=O)(=O)C(F)(F)F)C(F)(F)F | activity coefficient | 2.2 |
| CC1CCCCC1 [methylcyclohexane] + CCCCCCCCCC[N+](C)(C)C.O=S(=O)([N-]S(=O)(=O)C(F)(F)F)C(F)(F)F | activity coefficient | 3.39 |
| CCC(C)=O [butanone] + CCCCCCCC[N+](C)(C)C.O=S(=O)([N-]S(=O)(=O)C(F)(F)F)C(F)(F)F | activity coefficient | 0.34 |
| CC#N [acetonitrile] + CCCCCCCCCC[N+](C)(C)C.O=S(=O)([N-]S(=O)(=O)C(F)(F)F)C(F)(F)F | activity coefficient | 0.42 |
| C[N+](=O)[O-] [nitromethane] + CCCC[N+](C)(CCCC)CCCC.O=S(=O)([N-]S(=O)(=O)C(F)(F)F)C(F)(F)F | activity coefficient | 0.62 |
| C#CCCCCC [1-heptyne] + CCCCCCCC[N+](C)(C)C.O=S(=O)([N-]S(=O)(=O)C(F)(F)F)C(F)(F)F | activity coefficient | 2.39 |
| c1ccncc1 [pyridine] + CCCC[N+](C)(CCCC)CCCC.O=S(=O)([N-]S(=O)(=O)C(F)(F)F)C(F)(F)F | activity coefficient | 0.56 |
| CC(C)CC(C)(C)C [2,2,4-trimethylpentane] + CCCC[N+](C)(CCCC)CCCC.O=S(=O)([N-]S(=O)(=O)C(F)(F)F)C(F)(F)F | activity coefficient | 8.42 |
| CCc1ccccc1 [ethylbenzene] + CCCCCCCCCC[N+](C)(C)C.O=S(=O)([N-]S(=O)(=O)C(F)(F)F)C(F)(F)F | activity coefficient | 1.19 |
| CCCCO [butan-1-ol] + CCCCCCCC[N+](CCCCCCCC)(CCCCCCCC)CCCCCCCC.O=S(=O)([N-]S(=O)(=O)C(F)(F)F)C(F)(F)F | activity coefficient | 1.04 |
| CCC[N+](=O)[O-] [1-nitropropane] + CCCCCCCC[N+](CCCCCCCC)(CCCCCCCC)CCCCCCCC.O=S(=O)([N-]S(=O)(=O)C(F)(F)F)C(F)(F)F | activity coefficient | 0.47 |
| CC(C)CO [2-methyl-1-propanol] + CCCC[N+](C)(CCCC)CCCC.O=S(=O)([N-]S(=O)(=O)C(F)(F)F)C(F)(F)F | activity coefficient | 1.64 |
| CCC(C)=O [butanone] + CCCC[N+](C)(CCCC)CCCC.O=S(=O)([N-]S(=O)(=O)C(F)(F)F)C(F)(F)F | activity coefficient | 0.35 |
| CC1CCCC1 [methylcyclopentane] + CCCC[N+](C)(CCCC)CCCC.O=S(=O)([N-]S(=O)(=O)C(F)(F)F)C(F)(F)F | activity coefficient | 4.5 |
| C#CCCCC [1-hexyne] + CCCCCCCC[N+](C)(C)C.O=S(=O)([N-]S(=O)(=O)C(F)(F)F)C(F)(F)F | activity coefficient | 1.82 |
| CCCC(C)=O [pentan-2-one] + CCCCCCCC[N+](CCCCCCCC)(CCCCCCCC)CCCCCCCC.O=S(=O)([N-]S(=O)(=O)C(F)(F)F)C(F)(F)F | activity coefficient | 0.37 |
| C[N+](=O)[O-] [nitromethane] + CCCCCCCC[N+](C)(C)C.O=S(=O)([N-]S(=O)(=O)C(F)(F)F)C(F)(F)F | activity coefficient | 0.55 |
| CCOCC [diethyl ether] + CCCCCCCCCC[N+](C)(C)C.O=S(=O)([N-]S(=O)(=O)C(F)(F)F)C(F)(F)F | activity coefficient | 1.21 |
| CC(C)CC(C)(C)C [2,2,4-trimethylpentane] + CCCCCCCC[N+](CCCCCCCC)(CCCCCCCC)CCCCCCCC.O=S(=O)([N-]S(=O)(=O)C(F)(F)F)C(F)(F)F | activity coefficient | 1.5 |
| CCc1ccccc1 [ethylbenzene] + CCCC[N+](C)(CCCC)CCCC.O=S(=O)([N-]S(=O)(=O)C(F)(F)F)C(F)(F)F | activity coefficient | 1.63 |
| CCCCO [butan-1-ol] + CCCCCCCCCC[N+](C)(C)C.O=S(=O)([N-]S(=O)(=O)C(F)(F)F)C(F)(F)F | activity coefficient | 1.38 |
| CCC=O [propanal] + CCCC[N+](C)(CCCC)CCCC.O=S(=O)([N-]S(=O)(=O)C(F)(F)F)C(F)(F)F | activity coefficient | 0.5 |
| C=CCCCC [hex-1-ene] + CCCCCCCC[N+](C)(C)C.O=S(=O)([N-]S(=O)(=O)C(F)(F)F)C(F)(F)F | activity coefficient | 3.6 |
